Quick record: IC50, UniProtKB Q3SYC2.
Sequence (Q3SYC2 whole entry): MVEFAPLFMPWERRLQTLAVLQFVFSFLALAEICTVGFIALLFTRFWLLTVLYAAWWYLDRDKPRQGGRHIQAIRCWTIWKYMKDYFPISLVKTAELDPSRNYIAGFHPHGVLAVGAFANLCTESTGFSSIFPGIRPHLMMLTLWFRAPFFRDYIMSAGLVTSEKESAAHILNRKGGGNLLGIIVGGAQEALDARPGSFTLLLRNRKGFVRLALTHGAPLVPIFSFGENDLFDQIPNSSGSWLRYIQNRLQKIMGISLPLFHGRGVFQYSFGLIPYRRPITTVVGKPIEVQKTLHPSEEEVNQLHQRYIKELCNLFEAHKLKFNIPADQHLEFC
recorded_metric: IC50 (nM)

The cases that follow already have their IC50 on record.
INPUT: Need IC50, item CS(=O)(=O)CC(=O)Nc1c2c(nn1CCCC(F)(F)F)C[C@@]1(CCc3cc(OCC(F)(F)F)ccc31)NC2=O
OUTPUT: 6.9

INPUT: Query (compound): CCOc1ccc2c(c1)OCC[C@]21Cn2nc(-c3ccc(F)c(F)c3)c(NC(=O)CS(C)(=O)=O)c2C(=O)N1 ; field requested: IC50
OUTPUT: 1.39

INPUT: Need IC50 of CS(=O)(=O)CC(=O)Nc1c(-c2ccc(Cl)cn2)nn2c1C(=O)N[C@@]1(CCOc3cc(F)cc(F)c31)C2 , thanks.
OUTPUT: 1.53

INPUT: Given the compound Cc1ccc(-n2nc3c(c2NC(=O)CS(C)(=O)=O)C(=O)N[C@@]2(CCc4cc(OCC(F)(F)F)ccc42)C3)nc1 , what is its reported IC50?
OUTPUT: 2.8

P: CS(=O)(=O)CC(=O)Nc1c(-c2ccc(Cl)cn2)nn2c1C(=O)N[C@@]1(CCc3cc(F)cc(F)c31)C2
Q: CCS(=O)(=O)CC(=O)Nc1c(-c2ccc(C)cn2)nn2c1C(=O)N[C@@]1(CCOc3cc(F)cc(F)c31)C2
R: CS(=O)(=O)CC(=O)Nc1c(-c2ccc(F)c(F)c2)nn2c1C(=O)N[C@@]1(CCc3cc(OCC(F)(F)F)ccc31)C2
INPUT: // sort entries: IC50, high to low Please list the labels in the order you were asked to rank them.
OUTPUT: Q, P, R

====

Parameter 'readout' = IC50; parameter 'system' = UniProtKB Q3SYC2.
recorded_metric: IC50 (nM)

Previously resolved entries follow.
INPUT: Field request: IC50 | item: CS(=O)(=O)CC(=O)Nc1c(-c2ccc(C(F)F)cc2)nn2c1C(=O)N[C@@]1(CCOc3cc(F)cc(F)c31)C2
OUTPUT: 2.9

INPUT: IC50 lookup needed for Cc1ccc(-n2nc3c(c2NC(=O)CS(C)(=O)=O)C(=O)N[C@@]2(CCOc4cc(OCC(C)(F)F)ccc42)C3)nc1 , thanks.
OUTPUT: 2.05

INPUT: Requested read-out: IC50. Entry: CS(=O)(=O)CC(=O)Nc1c(-c2ccc(Cl)cn2)nn2c1C(=O)N[C@]1(CCOc3cc(F)cc(F)c31)C2
OUTPUT: 5.33

INPUT: Item under review: CS(=O)(=O)CC(=O)Nc1c2c(nn1CCCOC(F)(F)F)C[C@@]1(CCOc3cc(OCC(F)(F)F)ccc31)NC2=O . Reported IC50?
OUTPUT: 2.91

P: CS(=O)(=O)CC(=O)Nc1c(-c2ccc(C3CC3)cn2)nn2c1C(=O)N[C@@]1(CCOc3cc(F)cc(F)c31)C2
Q: CS(=O)(=O)CC(=O)Nc1c2c(nn1-c1ccc(C(F)F)cc1)C[C@]1(CCc3cc(OCC(F)(F)F)ccc31)NC2=O
INPUT: For the pair P and Q , which member has the lower IC50 number? Answer by quoting the chosen item's label.
OUTPUT: Q
